Assay system: T1, TCR gamma/delta constant region (TRGDC) (human, UniProt P0CF51 1-173; B7Z8K6 1-153)
T1 chain (looked up) 1: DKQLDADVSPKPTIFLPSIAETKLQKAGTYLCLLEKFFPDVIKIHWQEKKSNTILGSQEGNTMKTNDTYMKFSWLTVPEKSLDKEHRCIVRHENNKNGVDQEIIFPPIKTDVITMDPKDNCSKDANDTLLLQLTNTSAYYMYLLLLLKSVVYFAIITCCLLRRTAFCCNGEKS
T1 chain (looked up) 2: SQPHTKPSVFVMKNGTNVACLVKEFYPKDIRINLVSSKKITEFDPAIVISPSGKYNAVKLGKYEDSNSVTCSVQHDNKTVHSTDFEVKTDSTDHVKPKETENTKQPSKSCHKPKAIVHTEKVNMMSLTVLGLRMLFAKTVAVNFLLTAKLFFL
Assay method text: cell-based or functional assay
Readout name: Granzyme B; Luninex (supernatant)
One number for each entry.

Below, each entry is followed by its recorded Granzyme B; Luninex (supernatant) result.
VG9B112 (antibody, human IgG1, kappa, V domains shown) VH: QVQLQQSGPGLVKPSQTLSLTCAISGDSVSSNSAAWNWIRQSPSRGLEWLGGTYYRSKWFNNYAVSVKSRITINPDTSTNQFSLQLNSVTPADTAVYYCARGEWGLRDAFDIWGQGTMVTVSS VL: DIQMTQSPSFLSASVGDRVIITCRASQGIHSYLAWYQQKPGKVPKLLIYVASTLQSGVPSRFSGSGSGTEFTLTISSLQPEDFATYYCQQLNSYPWTFGQGTKLEIKR : 1140
VG9B125 (antibody, human IgG1, kappa, V domains shown) VH: EVQLVESGGTLVQPGGSLRLSCAVSGFTFSSYDMNWVRQAPGKGLEWVSYISSSSTAKYYADSVKGRFTISRDNAKNSLYLQMNSLWDEDTAVYYCAREDIVVVTPILQHWGQGTTVTVSS VL: EIVMTQSPATLSLSPGERAILSCRASQSVSKDLAWYQQKPGQAPRLLIYDASNRATGIPARISGSGSGTDFTLTISSLEPEDFAVYYCQQRINWPLFTFGPGTKVEIKR : 3760
VG9B386 (antibody, human IgG1, kappa, V domains shown) VH: EVQLVESGGGLVKPGGSLRLSCAASGFTFSSYSMIWVRQAPGKGLEWVSSIGSSSTYIYYADSVRGRFTISRDNAKTSLYLQMNSLRAEDTAMYFCARDGETGGFDYWGQGILVTVSS VL: EIVMTQSPGTLSLSPGERATLSCRASQSISRSYLAWYQQKPGQPPRLLIYGPSNRATGIPDRFSASGSGTDFTLTNSRLEPEDFAVYYCQQYGSLPLTFGGGTKVEIKR : 2960
VG9B144 (antibody, human IgG1, lambda, V domains shown) VH: QVQLVQSGAEVKKPGASVKVSCKASGYTFTGYYMHWMRQAPGQGLEWMGWINPNSGATNKEQKFQGRVTMTRDTSISTAYMELSRLRSDDTAVYYCAREDDAFDVWGQGTMVTVSS VL: SSELTQDPAVSVALGQTVRITCQGDNLRNYYATWFQQKPGQAPVLVFFGKNNRPSGIPDRFSGSSSGDTASLTITGAQAEDEADYYCNSRDSSGNHVVFGGGTKLTVLG : 1760
VG9B387 (antibody, human IgG1, lambda, V domains shown) VH: EVQLVESGAEVKKPGASVKVSCKASGFTFTGYYLQWVRQAPGQGLEWMGWINPNSGYTDYAQRFQDRVTMTRDTSINTAYMELSRLRSDDTAVYYCARLDDAFDVWGQGTMVTVSS VL: SYELTQDPAVSVALGQTVRITCQGDSLRNYYAIWYQQKPGQAPVLVIFGKNNRPSGIPDRFSGSSSGTTASLTITGTQAEDEADYYCNSRDSSGNHWVFGGGTKLTVLG : 1470

Your task in this section: give Granzyme B; Luninex (supernatant) for each listed record.
1. VG9B369 (antibody, human IgG1, kappa, V domains shown) VH: EVQLLESGPTLVKPTQTLTLTCTFSGFSLSTIGVGVGWIRQPPGKALEWLSLIYWNDDKRYNPSLKSRLTITKDTSKNQVVLTMTNMDPVDTATYYCAHSHDWVHAFDIWGQGTMVTVSS VL: DIVMTQSPSSLSASVGDRVTITCQASQDISHYLNWYQQKPGKAPKFLIYDASNLDTGVPSRFSGSGSGTDFTFTISSLQPEDIATYYCQQYDNFPLTFGGGTKVEIKR
2. VG9B136 (antibody, human IgG1, kappa, V domains shown) VH: QVQLQQSGPGLVKPSQTLSLTCAISGDSVSSNRAAWNWIRQSPSKGLEWLGRTYYRSKWYNEYAASVKSRMSINPDTSKNQFSLQLNSVTPEDTALYYCARDLWELREACDIWGQGTMVTVSS VL: DIVMTQSPSFLSTFVGDRVTITCRASQGISSYLAWYQQKPGKVPKLLIYVASTLQSGVPSRFSGSGSGTEFTLTISSLQPEDFATYYCQQLNSYPFTFGPGTKVDIKR

Result:
2630
1540

Origin of measurements: patent US20220125947A1
